Data origin: ChEMBL document CHEMBL5215012

# maps each entry to its CC50
# Tested on: MT4
# PROCEDURE SUMMARY: Cytotoxicity against human MT4 cells assessed as reduction in cell viability by celltiter-glo luminescent cell viability assay
# Assay type: toxicity, cell-based

Study these solved cases before continuing.
smiles_str=C=C(C)[C@]12C[C@@H](COC(=O)c3ccccc3)[C@]34OC5(CCCCC[C@@H](OC(=O)c6ccccc6)C[C@@H](C)[C@@H]6[C@@H]3[C@]3(O[C@]6(C)OC3=O)[C@H](O)[C@@]3(CO)O[C@H]3[C@H]4[C@H]1O5)O2 reported_result="5.3 µM"
smiles_str=C=C(C)[C@]12C[C@@H](C)[C@]34OC5(CCCCCCC[C@@H](C)[C@@H]6[C@@H]3[C@@](O)(C(=O)[C@@]6(C)O)[C@H](O)[C@@]3(CO)O[C@H]3[C@H]4[C@H]1O5)O2 reported_result="> 6.5 µM"

Prompt line: Fetch value of CC50 on MT4 for "C=C(C)[C@]12C[C@@H](C)[C@@]34OC5(CCCCCCCC[C@H]6[C@H](C)C(=O)[C@@](O)([C@H](O)[C@@]7(CO)O[C@H]7[C@H]3[C@H]1O5)[C@@H]64)O2" .
Response line: > 6.5 µM

Prompt line: Fetch value of CC50 on MT4 for "C=C(C)[C@]12C[C@@H](C)[C@@]34OC5(CCCCCCC[C@@H](C)[C@H]6[C@H](C)C(=O)[C@@](O)([C@H](O)[C@@]7(CO)O[C@H]7[C@H]3[C@H]1O5)[C@@H]64)O2" .
Response line: > 6.5 µM

----------
# System: MT4
# PROCEDURE SUMMARY: Cytotoxicity against human MT4 cells assessed as reduction in cell viability by celltiter-glo luminescent cell viability assay
# Type: toxicity, cell-based
# maps each entry to its CC50

Study these solved cases before continuing.
smiles_str=C=C(C)[C@]12C[C@@H](COC(=O)c3ccccc3)[C@@]34OC5(CCCCC[C@@H](O)C[C@@H](C)[C@H]6[C@H](C)C(=O)[C@@](O)([C@H](O)[C@@]7(CO)O[C@H]7[C@H]3[C@H]1O5)[C@@H]64)O2 system=MT4 endpoint=CC50 reported_result="> 6.5 µM"
smiles_str=C=C(C)[C@]12C[C@@H](COC(=O)c3ccccc3)[C@@]34OC5(CCCCCCC[C@@H](C)[C@H]6[C@H](C)C(=O)[C@@](O)([C@H](O)[C@@]7(CO)O[C@H]7[C@H]3[C@H]1O5)[C@@H]64)O2 system=MT4 endpoint=CC50 reported_result="> 38.5 µM"
smiles_str=C=C(C)[C@]12C[C@@H](C)[C@]34OC5(CCCCCCC[C@H](C)[C@@H]6[C@@H]3[C@]3(O[C@]6(C)OC3=O)[C@H](O)[C@@]3(CO)O[C@H]3[C@H]4[C@H]1O5)O2 system=MT4 endpoint=CC50 reported_result="> 38.5 µM"

With those in mind, consider the next molecule.
Prompt line: Fetch value of CC50 on MT4 for "C=C(C)[C@]12C[C@@H](COC(=O)c3ccccc3)[C@@]34OC5(O[C@@H]1[C@@H]3[C@@H]1O[C@]1(CO)[C@@H](O)[C@@]1(O)[C@H]4[C@H]([C@H](C)[C@@H]1OC(=O)c1ccccc1)[C@H](C)CCCCCC[C@H]5O)O2" .
Response line: > 6.5 µM
